- Test system: Streptococcus pyogenes
- TEST PROTOCOL: Growth inhibition of Streptococcus pyogenes UMAA2616 at 50 uM after 24 hrs relative to control
- Assay type: organism-based
OUTCOME MEASURE: T/C
# respond with the number and nothing more

Observe how each entry below is paired with its result.
- SMI: "C#CCOCCSc1nc2c(c(=O)n1CC=C)C(C)(C)Cc1cc(OCCC3(C)N=N3)ccc1-2"
  T/C: 1.07
- SMI: "C#CCSc1nc2c(c(=O)n1CC=C)C(C)(C)Cc1cc(OCCC3(C)N=N3)ccc1-2"
  T/C: 0.96
- SMI: "C#CCOCCOc1ccc2c(c1)CC(C)(C)c1c-2nc(SCCC2(C)N=N2)n(CC=C)c1=O"
  T/C: 1.01
- SMI: "C#CCOCCSc1nc2c(c(=O)n1CC=C)C(C)(C)Cc1cc(C(=O)c3ccccc3)ccc1-2"
  T/C: 0.94
- SMI: "C#CCOCCSc1nc2c(c(=O)n1CC=C)C(C)(C)Cc1ccc(N=[N+]=[N-])cc1-2"
  T/C: 0.98

// query Identify measured T/C corresponding to C#CCSc1nc2c(c(=O)n1CC=C)C(C)(C)Cc1cc(C(=O)c3ccccc3)ccc1-2
// result 1.09

// query Give the value of T/C reported for the following: C#CCOc1ccc2c(c1)CC(C)(C)c1c-2nc(SCCC2(C)N=N2)n(CC=C)c1=O
// result 1.02

// query Entry C=CCn1c(SCC)nc2c(c1=O)C(C)(C)Cc1ccc(OC)cc1-2 needs its T/C filled in; supply it.
// result 0.73

====

- ASSAYED TARGET: UniProtKB P96471
- TEST PROTOCOL: Inhibition of Streptococcus pyogenes UMAA2616 streptokinase assessed as plasmin activity in human plasma at 5 uM after 24 hrs by colorimetric analysis relative to control
Please use y for T/C under 0.5 and n for everything else, ties included.

// query # TODO verify T/C < 0.5 strictly for this molecule: C#CCSc1nc2c(c(=O)n1CC=C)C(C)(C)Cc1cc(C(=O)c3ccccc3)ccc1-2
// result n

// query Given the entry C#CCOCCOc1ccc2c(c1)CC(C)(C)c1c-2nc(SCCC2(C)N=N2)n(CC=C)c1=O , would its reported T/C be below 0.5?
// result n

// query Does the reported T/C of C=CCn1c(SCC)nc2c(c1=O)C(C)(C)Cc1ccc(OC)cc1-2 stay below 0.5?
// result y

// query Consider the molecule C#CCOc1ccc2c(c1)CC(C)(C)c1c-2nc(SCCC2(C)N=N2)n(CC=C)c1=O . Is its T/C strictly less than 0.5?
// result n

// query Could you please tell me whether T/C recorded for C#CCOCCSc1nc2c(c(=O)n1CC=C)C(C)(C)Cc1ccc(N=[N+]=[N-])cc1-2 is less than 0.5?
// result y

// query Please check: T/C for C#CCSc1nc2c(c(=O)n1CC=C)C(C)(C)Cc1cc(OCCC3(C)N=N3)ccc1-2 , strictly under 0.5 or not?
// result n

====

- ASSAYED TARGET: Streptokinase (Streptococcus pyogenes)
- Sequence (P96471 whole entry): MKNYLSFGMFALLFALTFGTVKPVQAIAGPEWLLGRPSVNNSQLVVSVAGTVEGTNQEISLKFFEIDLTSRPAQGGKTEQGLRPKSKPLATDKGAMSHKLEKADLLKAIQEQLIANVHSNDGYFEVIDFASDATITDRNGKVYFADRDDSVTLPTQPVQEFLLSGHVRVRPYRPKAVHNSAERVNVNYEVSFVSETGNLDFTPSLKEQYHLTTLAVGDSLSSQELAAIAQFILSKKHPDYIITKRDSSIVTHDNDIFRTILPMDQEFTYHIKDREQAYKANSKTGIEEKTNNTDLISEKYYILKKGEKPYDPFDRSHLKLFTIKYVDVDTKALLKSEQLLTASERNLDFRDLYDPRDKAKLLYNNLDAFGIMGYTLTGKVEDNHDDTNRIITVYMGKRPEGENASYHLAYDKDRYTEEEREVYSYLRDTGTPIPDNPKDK
- TEST PROTOCOL: Inhibition of Streptococcus pyogenes UMAA2616 streptokinase assessed as plasmin activity in human plasma after 24 hrs by colorimetric analysis
Overview of reported pIC50 across a group of compounds:
Recall that pIC50 is obtained by taking minus log10 of the concentration measured in molar.

The examples below pair each entry with its known result.
- SMI: "C=CCn1c(SCC)nc2c(c1=O)C(C)(C)Cc1ccc(OC)cc1-2"
  RESULT NUMBER: 5.89
- SMI: "C#CCOCCSc1nc2c(c(=O)n1CC=C)C(C)(C)Cc1cc(C(=O)c3ccccc3)ccc1-2"
  RESULT NUMBER: 5.42
- SMI: "C#CCOCCSc1nc2c(c(=O)n1CC=C)C(C)(C)Cc1ccc(N=[N+]=[N-])cc1-2"
  RESULT NUMBER: 6.72

// query State pIC50 (Streptokinase (Streptococcus pyogenes)) of C#CCOCCSc1nc2c(c(=O)n1CC=C)C(C)(C)Cc1cc(OCCC3(C)N=N3)ccc1-2 .
// result 6.48

// data source = ChEMBL document CHEMBL3124834
